- Tested on: SW-620 colon
Where a SMILES comes first, the peptide text is derived from it.
Answer with one of the outcomes active, inactive

CC(C)CC(NC(=O)C(CC(C)C)NC(=O)C(Cc1cnc[nH]1)NC(=O)C(C)NC(=O)C(NC(=O)C(C)NC(=O)C(Cc1c[nH]c2ccccc12)NC(=O)C(CCC(=O)O)NC(=O)C(N)Cc1ccccc1)C(C)C)C(N)=O (stereo not drawn) (H-FEWAVAHLL-NH2; configuration not given here) ... inactive
O=C1OCc2c1cc(F)cc2[N+](=O)[O-] ... inactive
CN(C)CCCN(c1nc(C(Cl)(Cl)Cl)ns1)c1nc(C(Cl)(Cl)Cl)ns1 ... inactive
CCCc1cc2cc(-n3nc(C)c4c3CC(C)(C)CC4=O)cc(NC3CCC(O)CC3)c2c(=O)[nH]1 (stereo not drawn) ... active
COC(=O)C(C)NP(=O)(OCc1ccc(Cn2cnc3c(=O)[nH]c(N)nc32)cc1)Oc1ccccc1 (stereo not drawn) ... inactive
Cc1n[nH]c(=S)n1/N=C/c1ccc(F)c(Oc2ccccc2)c1 ... inactive

Could you check what this test reported for `O=C1c2cc3c(cc2-c2c1c1ccc(Cl)cc1c(=O)n2C[C@H](O)[C@@H](O)[C@H](O)CO)OCO3` ?
active

Could you check what this test reported for `COc1cc(C#N)cc(OC)c1OCCOCCOc1c(OC)cc(C#N)cc1OC` ?
inactive
